This listing pairs compounds with measured CC50 at 72 h.
- protocolDescription: Cytotoxicity against human THP1 cells assessed as cell viability after 72 hrs by resazurin staining-based fluorimetric analysis
- conditionSet: THP-1 cells

Prompt: Find the recorded CC50 at 72 h belonging to O=S(=O)(NC1CCN(Cc2ccncc2)CC1)c1ccc(-n2cccn2)cc1 and report it.
Completion: > 64 µM

Prompt: Find the recorded CC50 at 72 h belonging to COCCN(C1CCN(Cc2c(-c3ccccc3)[nH]c3c(C)cccc23)C1)S(C)(=O)=O (centres undefined) and report it.
Completion: > 64 µM

Prompt: Find the recorded CC50 at 72 h belonging to Cc1cc(-n2cccn2)ccc1S(=O)(=O)NC1CCN(Cc2ccncc2)CC1 and report it.
Completion: 32 µM

Prompt: Find the recorded CC50 at 72 h belonging to Cc1cccc2c(CN3CCC(NS(C)(=O)=O)C3)c(-c3ccccc3)[nH]c12 (racemic) and report it.
Completion: 32 µM
